ASSAY REMARKS: Pharmacokinetics of PTI and indomethacin, single i.p. dose
EXPERIMENTAL CONDITIONS: mouse, in vivo, ip, 100 mg/kg
ATTRIBUTE MEASURED: Cmax

CCOP(=O)(OCC)OCCc1ccc(OC(=O)Cc2c(C)n(C(=O)c3ccc(Cl)cc3)c3ccc(OC)cc23)cc1	46 µM

====

Listing of recorded AUC(0-t) by entry.
ASSAY REMARKS: Pharmacokinetic study of phosphosulindac amide and sulindac, single oral dose
Type: in vivo, mice
EXPERIMENTAL CONDITIONS: mouse, plasma, 66 mg/kg; single oral dose of sulindac equimolar to PSA; label = analyte; read-out: AUC0-24 h, sulindac administration
ATTRIBUTE MEASURED: AUC(0-t) (µM·h)

CC1=C(CC(=O)O)c2cc(F)ccc2/C1=C\c1ccc(S(C)(=O)=O)cc1	93.4
CSc1ccc(/C=C2/C(C)=C(CC(=O)O)c3cc(F)ccc32)cc1 [Sulindac sulfide 146, sulindac sulfide]	691
CC1=C(CC(=O)O)c2cc(F)ccc2/C1=C\c1ccc([S+](C)[O-])cc1 (stereo not drawn)	385

====

STUDY TARGET: COX-1 (Ovis aries, UniProt P05979)
Sequence (P05979 25-600): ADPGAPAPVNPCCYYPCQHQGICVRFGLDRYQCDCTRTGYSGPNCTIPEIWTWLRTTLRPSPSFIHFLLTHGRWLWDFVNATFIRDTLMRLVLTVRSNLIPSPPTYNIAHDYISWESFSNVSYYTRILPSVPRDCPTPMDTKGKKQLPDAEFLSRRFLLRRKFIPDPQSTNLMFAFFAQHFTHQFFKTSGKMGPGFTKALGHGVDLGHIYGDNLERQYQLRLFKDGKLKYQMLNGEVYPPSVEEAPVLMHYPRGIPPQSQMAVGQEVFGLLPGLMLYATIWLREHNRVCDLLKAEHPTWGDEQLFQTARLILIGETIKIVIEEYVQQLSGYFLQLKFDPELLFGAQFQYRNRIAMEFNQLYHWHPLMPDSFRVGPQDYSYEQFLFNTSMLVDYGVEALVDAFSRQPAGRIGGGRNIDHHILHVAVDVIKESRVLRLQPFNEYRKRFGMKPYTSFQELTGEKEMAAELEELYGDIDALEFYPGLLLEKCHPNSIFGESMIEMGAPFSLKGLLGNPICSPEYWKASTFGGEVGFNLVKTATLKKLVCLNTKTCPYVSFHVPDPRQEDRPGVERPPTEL
ATTRIBUTE MEASURED: IC50

CCOP(=O)(OCC)OCCc1ccc(OC(=O)Cc2c(C)n(C(=O)c3ccc(Cl)cc3)c3ccc(OC)cc23)cc1 [PTI]	905 µM

====

STUDY TARGET: COX-2 (Homo sapiens)
Sequence (P35354 18-604): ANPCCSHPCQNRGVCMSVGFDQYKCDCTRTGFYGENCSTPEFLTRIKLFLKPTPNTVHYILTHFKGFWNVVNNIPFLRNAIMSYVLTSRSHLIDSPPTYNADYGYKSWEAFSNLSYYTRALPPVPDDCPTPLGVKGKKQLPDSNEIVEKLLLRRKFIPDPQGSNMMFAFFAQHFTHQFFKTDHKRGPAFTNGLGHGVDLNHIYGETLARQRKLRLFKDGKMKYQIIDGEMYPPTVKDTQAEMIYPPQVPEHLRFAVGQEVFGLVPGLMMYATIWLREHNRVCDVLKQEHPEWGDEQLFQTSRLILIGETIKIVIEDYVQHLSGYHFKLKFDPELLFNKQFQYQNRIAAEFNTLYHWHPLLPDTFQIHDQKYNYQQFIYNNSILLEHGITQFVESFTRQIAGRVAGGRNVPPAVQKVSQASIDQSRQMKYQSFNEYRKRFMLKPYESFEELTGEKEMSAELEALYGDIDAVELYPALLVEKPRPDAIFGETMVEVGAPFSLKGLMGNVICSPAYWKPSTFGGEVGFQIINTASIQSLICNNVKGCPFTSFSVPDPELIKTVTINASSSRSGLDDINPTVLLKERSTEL
ATTRIBUTE MEASURED: IC50 (µM)

CCOP(=O)(OCC)OCCc1ccc(OC(=O)Cc2c(C)n(C(=O)c3ccc(Cl)cc3)c3ccc(OC)cc23)cc1	71.7

====

ASSAY REMARKS: Pharmacokinetics after inhalational administration of PS
Assay type: in vivo, mice
EXPERIMENTAL CONDITIONS: BALB/c nude, mouse, inhaled or intranasal; plasma, after 8 min inhalation; label = analyte
ATTRIBUTE MEASURED: Cmax (µM)

CC1=C(CC(=O)O)c2cc(F)ccc2/C1=C\c1ccc(S(C)(=O)=O)cc1	10.4

====

ASSAY REMARKS: PK study of topical PSG versus oral PS
EXPERIMENTAL CONDITIONS: mouse, skin, topical or ocular
ATTRIBUTE MEASURED: Cmax

CCOP(=O)(OCC)OCCCCOC(=O)CC1=C(C)/C(=C/c2ccc([S+](C)[O-])cc2)c2ccc(F)cc21 (stereo not shown)	36.1 µM

====

Test system: U87 cells
ASSAY REMARKS: 24-h growth inhibition of U87 glioblastoma cells
Assay type: cell-based
EXPERIMENTAL CONDITIONS: Homo sapiens, U-87 MG; U87, 24 h
pIC50: −log10 of the molar value.
Recorded pIC50 values for a group of molecules are listed next.
ATTRIBUTE MEASURED: pIC50

CCOP(=O)(OCC)OCCCCOC(=O)CC1=C(C)/C(=C/c2ccc([S+](C)[O-])cc2)c2ccc(F)cc21 (stereo not shown)	3.94
CCOP(=O)(OCC)OCCCCOC(=O)C(C)c1ccc(CC(C)C)cc1 (stereo not shown)	4.01

====

ASSAY REMARKS: Pharmacokinetics after inhalational administration of PS
Type: in vivo, mice
EXPERIMENTAL CONDITIONS: BALB/c nude, mouse, inhaled or intranasal; plasma, after 8 min inhalation; label = analyte
ATTRIBUTE MEASURED: AUC

CC1=C(CC(=O)O)c2cc(F)ccc2/C1=C\c1ccc([S+](C)[O-])cc1 (stereo not drawn) [Sulindac]	49.5 µM·h
CSc1ccc(/C=C2/C(C)=C(CC(=O)O)c3cc(F)ccc32)cc1 [Sulindac sulfide 146, sulindac sulfide]	66.9 µM·h
CC1=C(CC(=O)O)c2cc(F)ccc2/C1=C\c1ccc(S(C)(=O)=O)cc1 [Sulindac sulfone 147, sulindac sulfone]	142 µM·h

====

Tested on: liver esterases
ASSAY REMARKS: Stability of PTI to purified porcine liver esterases
EXPERIMENTAL CONDITIONS: pig, half-life, 4 IU/ml esterase
ATTRIBUTE MEASURED: half-life (min)

CCOP(=O)(OCC)OCCc1ccc(OC(=O)Cc2c(C)n(C(=O)c3ccc(Cl)cc3)c3ccc(OC)cc23)cc1	2

====

ASSAY REMARKS: Pharmacokinetics after inhalational administration of PS
Format: in vivo, mice
EXPERIMENTAL CONDITIONS: BALB/c nude, mouse, inhaled or intranasal; lung, after 8 min inhalation; label = analyte; read-out: Tmax
ATTRIBUTE MEASURED: Tmax

CC1=C(CC(=O)O)c2cc(F)ccc2/C1=C\c1ccc(S(C)(=O)=O)cc1	8 h
